Biological target: NAD-dependent protein deacylase sirtuin-5, mitochondrial (Homo sapiens) (UniProt Q9NXA8)
Sequence (Q9NXA8 whole entry, looked up): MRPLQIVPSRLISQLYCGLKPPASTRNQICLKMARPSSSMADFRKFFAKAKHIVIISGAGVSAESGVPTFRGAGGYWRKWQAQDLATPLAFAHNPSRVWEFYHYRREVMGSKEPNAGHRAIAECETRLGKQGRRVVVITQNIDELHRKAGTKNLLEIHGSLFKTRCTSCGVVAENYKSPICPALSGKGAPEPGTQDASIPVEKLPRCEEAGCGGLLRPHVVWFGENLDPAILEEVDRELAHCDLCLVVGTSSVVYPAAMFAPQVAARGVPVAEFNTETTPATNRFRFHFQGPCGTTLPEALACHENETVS
Assay: blockers of sirtuin-5 deacylase activity – biochemical, fluorescence imaging, single point, set 5, primary screen (AID 652115)
Settings: Purified SirT5, succinyl-peptide AMC, trypsin-coupled fluorescence; at 15 µM; hits give high values
Among all 330,000 compounds or so, about 3,800 (1.2%) were called active. The list comes from a sample in which actives are over-represented; it also holds close analogues and randomly drawn compounds.
Provide the recorded inhibition for the entries that follow.
One number for each entry, in %.

# annotated cases, reported inhibition shown
{"compound": "CCCNC(=O)N1CC(=O)N2[C@H](CO)[C@@H](c3ccc(-c4ccc(F)cc4)cc3)[C@H]2C1", "readoutUnit": "%", "measurement": 4.11}
{"compound": "C=CCN1C(=O)C2(OCCCO2)c2cccc(Cl)c21", "readoutUnit": "%", "measurement": -2.09}
{"compound": "COc1cccc(NC(=O)CN(C)CC(=O)Nc2ccc3c(c2)CCC3)c1", "readoutUnit": "%", "measurement": 2.3}

Hi, could you look up inhibition for each item in my list?
1. COc1cc(OC)c(S(=O)(=O)Nc2ccccc2C(=O)O)cc1S(=O)(=O)Nc1ccccc1C(=O)O
2. C=C(C)COc1ccc(-c2ncncc2-c2ccc(OC)cc2)c(O)c1
3. C[C@@H]1CN([C@H](C)CO)C(=O)c2cc(-c3cccc(F)c3)cnc2O[C@H]1CN(C)C(=O)Nc1ccccc1F
4. CN(C)CC(=O)Nc1ccc2c(c1)[C@@H]1C[C@H](CC(=O)NCc3ccc(Cl)cc3)O[C@@H](CO)[C@@H]1O2
5. C[C@@H]1CN([C@@H](C)CO)C(=O)Cc2cc(NS(=O)(=O)c3cccs3)ccc2O[C@@H]1CN(C)C(=O)Nc1ccc(C(F)(F)F)cc1
6. Cc1ccc(-c2csc(NC(=O)Cn3[nH]c(=O)c4ccccc4c3=O)n2)cc1
7. CO[C@@H]1CN(C)C(=O)c2ccc(NC(=O)C3CCCCC3)cc2OC[C@@H](C)N(Cc2nccs2)C[C@@H]1C
8. C[C@H](CO)N1C[C@H](C)[C@H](CN(C)C(=O)Nc2ccc(F)cc2)OCCCC[C@H](C)Oc2ccc(NC(=O)CCC(F)(F)F)cc2C1=O

1: 0.719; 2: 24.8; 3: 4.47; 4: 4.86; 5: 3.48; 6: 112; 7: 3.01; 8: -0.898

Hi, could you look up inhibition for each item in my list?
1. O=C(O)c1ccccc1/C=N/Nc1ccc(S(=O)(=O)Nc2ccc(Cl)cc2)cc1[N+](=O)[O-]
2. COCC#Cc1cnc2c(c1)C(=O)N([C@H](C)CO)C[C@@H](C)[C@@H](CN(C)Cc1ccccc1F)O2
3. NC(=O)c1ccc(NC(=O)COC(=O)c2c3c(nc4ccccc24)/C(=C\c2ccc4c(c2)OCO4)CCC3)cc1
4. Cc1ccc(NS(=O)(=O)c2ccc(N/N=C/c3ccccc3OCC(=O)O)c([N+](=O)[O-])c2)c(C)c1
5. Cc1noc(C)c1NC(=O)N(C)C[C@H]1OCCCC[C@@H](C)Oc2ccc(NC(=O)NC(C)C)cc2C(=O)N([C@@H](C)CO)C[C@H]1C
6. COc1cccc(/C=N/Nc2ccc(S(=O)(=O)Nc3ccccc3C(=O)O)cc2[N+](=O)[O-])c1O
7. COCCNC(=O)C[C@H]1C[C@H]2c3cc(NS(C)(=O)=O)ccc3O[C@H]2[C@H](CO)O1
8. COc1ccc(Br)cc1/C=N/Nc1ccc(S(=O)(=O)Nc2ccccc2C(=O)O)cc1[N+](=O)[O-]

1: 10.8; 2: 1.75; 3: -2.29; 4: -2.15; 5: 1.72; 6: 19; 7: -4.62; 8: 47.2

Hi, could you look up inhibition for each item in my list?
1. C=CCN1C(=O)C(O)(CC(=O)c2ccccn2)c2ccccc21 (centres undefined)
2. COc1ccc2c3c([nH]c2c1)[C@H](CO)N(Cc1ccccc1)CC31CCN(C(=O)c2ccccn2)CC1
3. CCCNC(=O)N1CC(=O)N2[C@H](CO)[C@H](c3ccc(C#Cc4cccc(OC)c4)cc3)[C@H]2C1
4. CN(C)c1ccc2c(c1)[C@H]1C[C@H](CC(=O)NCc3ccc(Cl)cc3)O[C@H](CO)[C@H]1O2

1. 26.6
2. -0.283
3. -0.038
4. 15.9

Hi, could you look up inhibition for each item in my list?
1. O=C(C[C@@H]1C[C@H]2c3cc(NS(=O)(=O)c4ccc(F)cc4)ccc3O[C@H]2[C@H](CO)O1)NCCc1ccccc1
2. CC(C)(C)c1cc(C(=O)NN)n(Cc2ccc(Cl)cc2Cl)n1
3. O=C(N/N=C/c1ccc2c(c1)OCO2)C(=O)N1CCCC1
4. CN1C(=O)c2cc(NC(=O)C3CCOCC3)ccc2OC[C@H]2O[C@@H](CC(=O)NCC3CCCCC3)CC[C@@H]21

1: 1.01; 2: 1.67; 3: -0.951; 4: 12.7
